Assay: protein stability index of a GFP-peptide fusion (yeast GPS) (PSI 1-4); higher = more stable; sorted into four equal gates, so the index is relative within each strain
Details: doa10∆
readout: protein stability index
A bare number is all that is needed in reply.

Take a look at these entries with their results.
ordered.residues: RILSTLDRELLKPSMSV [RPT3]
protein stability index: 3.04
//
ordered.residues: HSLREYINGKATALANL [RPO31]
protein stability index: 3.06

Query sequence follows.
Give reported protein stability index value for NDENDDEFYINVDKNLN [RPN14]
2.96

* * *

Test: protein stability index of a GFP-peptide fusion (yeast GPS) (PSI 1-4); higher = more stable; sorted into four equal gates, so the index is relative within each strain
Details: doa10∆
The label depends only on protein stability index: class 1 if it is at least 3, class 0 if it is smaller.

ordered.residues: NSCFSDGSQQNLQQDKT [REC8]
label.class: class 0
//
ordered.residues: RHHWQYTKASLAKERQK [SSN8]
label.class: class 0

Check if protein stability index >= 3 (inclusive). Item: PFHDPEARLFNIWGTVR [ECM29]
class 0

Check if protein stability index >= 3 (inclusive). Item: YDIDEIDHSDESNRQSV [ESC2]
class 1

Check if protein stability index >= 3 (inclusive). Item: LLICIGTSLKVAPVSEI [SIR2]
class 0

Check if protein stability index >= 3 (inclusive). Item: RAVANRTDATFIRVIGS [RPT1]
class 1

* * *

Experiment: protein stability index of a GFP-peptide fusion (yeast GPS) (PSI 1-4); higher = more stable; sorted into four equal gates, so the index is relative within each strain
Settings: pdr5∆
Listed below: protein stability index values for each entry.
A bare number is all that is needed in reply.

Give reported protein stability index value for NHVMPLKPVDKLKPMNI [SIN4]
2.93

Give reported protein stability index value for NCVNDVLEFCKDYEAKT [POP1]
3.45

Give reported protein stability index value for QIIRRVKEMEPKQSDEY [SIR3]
3.18

Give reported protein stability index value for YFGENSSISWKNIAQCL [YJL039C/NUP192]
2.57

Give reported protein stability index value for YFKMFPASKHDKEVVYF [RPC34]
3.2

* * *

Test: protein stability index of a GFP-peptide fusion (yeast GPS) (PSI 1-4); higher = more stable; sorted into four equal gates, so the index is relative within each strain
Conditions: san1∆
readout: protein stability index
A bare number is all that is needed in reply.

Take a look at these entries with their results.
ordered.residues: KAGGECITLDQLAVRAP [RPL18A]
protein stability index: 2.86
--
ordered.residues: KERLVRDKKEKKQAQKQ [SMB1]
protein stability index: 2.82

Give reported protein stability index value for DSGRGAPLAKVVFRDPY [RPL2A]
3.03

Give reported protein stability index value for PSANNSSSIKSTGPTGA [RRP4]
3.35

* * *

Experiment: protein stability index of a GFP-peptide fusion (yeast GPS) (PSI 1-4); higher = more stable; sorted into four equal gates, so the index is relative within each strain
Conditions: san1∆
Listed below: protein stability index values for each entry.
A bare number is all that is needed in reply.

ordered.residues: HGGKMKPEIDENGTLLV [RPR2]
protein stability index: 3.05
//
ordered.residues: FFYLRISKKLQFSYLSS [PCI8]
protein stability index: 1.24
//
ordered.residues: PQYQYQRRYVIKEKVQF [ITC1]
protein stability index: 1.79

Query sequence follows.
Give reported protein stability index value for YMFANLEFSIYHRLSNK [CSN12]
2.42
